System: human fecal microflora
Assay: In vitro fermentation of fagopyritol-enriched buckwheat extract by human fecal microflora
Type: in vitro ADME
Settings: Controls (nutritive medium in place of fecal inoculum), 0 hrs, 40° C., anaerobic
Consider the following molecules and their measured concentration of inositols and fagopyritols readings.
Quick reminder: number only, in µg/750 µL, skip the unit.

| Molecule | Reading |
| --- | --- |
| OCC1O[C@H](OCC2O[C@@H](O[C@H]3C(O)C(O)[C@H](O)C(O)C3O)C(O)C(O)[C@H]2O)C(O)C(O)[C@H]1O (stereo partly drawn) | 56 |
| OCC1O[C@H](OCC2O[C@H](OC3C(O)[C@H](O)C(O)C(O)[C@@H]3O)C(O)C(O)[C@H]2O)C(O)C(O)[C@H]1O (stereo partly drawn) | 83 |
| OCC1O[C@@H](O[C@H]2C(O)C(O)[C@H](O)C(O)C2O)C(O)C(O)[C@H]1O (stereo partly drawn) | 88 |
| O[C@H]1[C@H](O)[C@@H](O)[C@H](O)[C@@H](O)[C@H]1O | 45 |
| OCC1O[C@H](OC2C(O)[C@H](O)C(O)C(O)[C@@H]2O)C(O)C(O)[C@H]1O (stereo partly drawn) | 667 |

Proceed to the following item.
Consider the molecule OC1C(O)C(O)C(O)C(O)C1O (stereo not drawn) tested on human fecal microflora; state its concentration of inositols and fagopyritols.
99
